# Tested on: 786-0 renal
# assay.protocol: NCI tumour cell line growth inhibition, 48 h
quantity.kind: TGI (µM)
Only the number, expressed in µM, is required.

The cases that follow already have their TGI on record.
>>> print(df.to_string())
                            compound_string  quantity_kind  measurement_units  recorded_result
0  CN(C)CCCOc1ccc(C(=C(c2ccccc2)C2CCCC2)c2ccc(OCCCN(C)C)cc2)cc1            TGI                 µM              8.3
1  COc1ccc(-c2cnc(NC(=O)CCCCCCNC(=O)C(O)(O)C(F)(F)F)s2)cc1            TGI                 µM             15.1

Query: Request body: readout TGI, system 786-0 renal, query `CNC(=O)c1cc(-c2ccc(NC(=O)Nc3ccc(N4CCN(C)CC4)c(C(F)(F)F)c3)cc2)nc2cccnc12` . Return the value.
Response: 3.52

====

# Test system: SNB-75 CNS
# assay.protocol: NCI tumour cell line growth inhibition, 48 h
quantity.kind: TGI (µM)
The reply should contain only the number, in µM.

>>> print(df.to_string())
                            compound_string  experimental_target  quantity_kind  recorded_result
0  C#C[C@]1(O)CC[C@H]2[C@@H]3CC=C4c5sc(Nc6ncccc6C)nc5CC[C@]4(C)[C@H]3CC[C@@]21C           SNB-75 CNS            TGI             5.44

Query: Using the record for `CC(C)(O)c1cncc(-c2ccc3ncnc(N4CCc5cc(F)c(Cl)cc54)c3c2)c1` , report its TGI.
Response: 15.2

Query: Check `CN(C)CCCOc1ccc(C(=C(c2ccccc2)C2CCCC2)c2ccc(OCCCN(C)C)cc2)cc1` too.
Response: 22.1

Query: Also need `CNC(=O)c1cc(-c2ccc(NC(=O)Nc3ccc(N4CCN(C)CC4)c(C(F)(F)F)c3)cc2)nc2cccnc12` , thanks.
Response: 28.4

====

# Tested on: A549 NSCLC
# assay.protocol: NCI tumour cell line growth inhibition, 48 h
quantity.kind: GI50

                            compound_string  experimental_target  quantity_kind  recorded_result
0  CN(C)CCCOc1ccc(C(=C(c2ccccc2)C2CCCC2)c2ccc(OCCCN(C)C)cc2)cc1           A549 NSCLC           GI50          3.47 µM
1  COc1ccc(CNS(=O)(=O)/N=C2\NC(=O)NC2=C(Cl)Cl)cc1           A549 NSCLC           GI50          3.48 µM
2  CC(C)(O)c1cncc(-c2ccc3ncnc(N4CCc5cc(F)c(Cl)cc54)c3c2)c1           A549 NSCLC           GI50         0.773 µM
3  C#C[C@]1(O)CC[C@H]2[C@@H]3CC=C4c5sc(Nc6ncccc6C)nc5CC[C@]4(C)[C@H]3CC[C@@]21C           A549 NSCLC           GI50          2.05 µM

Now for another entry.
Query: So what does the record say about GI50 for `CNC(=O)c1cc(-c2ccc(NC(=O)Nc3ccc(N4CCN(C)CC4)c(C(F)(F)F)c3)cc2)nc2cccnc12` ?
Response: 10.9 µM

====

Reported TGI by item:
# Tested on: HS 578T breast
# assay.protocol: NCI tumour cell line growth inhibition, 48 h
Answer with a number only, understood to be in µM.

Answered cases to consult:
>>> df
                            compound_string  experimental_target  measurement_units  recorded_result
0  CN(C)CCCOc1ccc(C(=C(c2ccccc2)C2CCCC2)c2ccc(OCCCN(C)C)cc2)cc1       HS 578T breast                 µM             5.53
1  CC(C)(O)c1cncc(-c2ccc3ncnc(N4CCc5cc(F)c(Cl)cc54)c3c2)c1       HS 578T breast                 µM             11.7

Query: Reported TGI, compound `C#C[C@]1(O)CC[C@H]2[C@@H]3CC=C4c5sc(Nc6ncccc6C)nc5CC[C@]4(C)[C@H]3CC[C@@]21C` : ____
Response: 2.3

Query: # repeat for `COc1ccc(-c2cnc(NC(=O)CCCCCCNC(=O)C(O)(O)C(F)(F)F)s2)cc1`
Response: 10.5

====

Quick reference: GI50 of the listed items.
# Test system: LOX IMVI melanoma
# assay.protocol: NCI tumour cell line growth inhibition, 48 h

Reference set, count: 3
>>> df
                            compound_string  experimental_target  recorded_result
0  CN(C)CCCOc1ccc(C(=C(c2ccccc2)C2CCCC2)c2ccc(OCCCN(C)C)cc2)cc1    LOX IMVI melanoma          1.63 µM
1  COc1ccc(CNS(=O)(=O)/N=C2\NC(=O)NC2=C(Cl)Cl)cc1    LOX IMVI melanoma         0.386 µM
2  C#C[C@]1(O)CC[C@H]2[C@@H]3CC=C4c5sc(Nc6ncccc6C)nc5CC[C@]4(C)[C@H]3CC[C@@]21C    LOX IMVI melanoma          1.32 µM

Moving on to the next molecule.
Query: # GI50 lookup, item `CNC(=O)c1cc(-c2ccc(NC(=O)Nc3ccc(N4CCN(C)CC4)c(C(F)(F)F)c3)cc2)nc2cccnc12`
Response: 0.656 µM

====

# Test system: UO-31 renal
# assay.protocol: NCI tumour cell line growth inhibition, 48 h
This listing pairs compounds with measured TGI.
Phrase the answer as number then unit, nothing more needed.

Recorded results for 3 compounds are shown here.
In [3]: df
Out[3]:
                            compound_string  experimental_target  quantity_kind  recorded_result
0  COc1ccc(-c2cnc(NC(=O)CCCCCCNC(=O)C(O)(O)C(F)(F)F)s2)cc1          UO-31 renal            TGI          3.98 µM
1  CN(C)CCCOc1ccc(C(=C(c2ccccc2)C2CCCC2)c2ccc(OCCCN(C)C)cc2)cc1          UO-31 renal            TGI          3.08 µM
2  CNC(=O)c1cc(-c2ccc(NC(=O)Nc3ccc(N4CCN(C)CC4)c(C(F)(F)F)c3)cc2)nc2cccnc12          UO-31 renal            TGI          29.2 µM

Query: Value lookup for TGI; key = `C#C[C@]1(O)CC[C@H]2[C@@H]3CC=C4c5sc(Nc6ncccc6C)nc5CC[C@]4(C)[C@H]3CC[C@@]21C`
Response: 2.82 µM

====

# Tested on: MOLT-4 leukemia
# assay.protocol: NCI tumour cell line growth inhibition, 48 h
quantity.kind: TGI (µM)
// return numeric value only (unit: µM, not printed)

Known results for compounds:
                            compound_string  quantity_kind  recorded_result
0  COc1ccc(CNS(=O)(=O)/N=C2\NC(=O)NC2=C(Cl)Cl)cc1            TGI             59.2
1  CNC(=O)c1cc(-c2ccc(NC(=O)Nc3ccc(N4CCN(C)CC4)c(C(F)(F)F)c3)cc2)nc2cccnc12            TGI             14.9

Query compound follows.
Query: So what does the record say about TGI for `CN(C)CCCOc1ccc(C(=C(c2ccccc2)C2CCCC2)c2ccc(OCCCN(C)C)cc2)cc1` ?
Response: 6.34

====

# System: COLO 205 colon
# assay.protocol: NCI tumour cell line growth inhibition, 48 h
quantity.kind: TGI (µM)
Output spec: scalar in µM, unitless text.

                            compound_string  quantity_kind  recorded_result
0  CN(C)CCCOc1ccc(C(=C(c2ccccc2)C2CCCC2)c2ccc(OCCCN(C)C)cc2)cc1            TGI             3.62
1  COc1ccc(-c2cnc(NC(=O)CCCCCCNC(=O)C(O)(O)C(F)(F)F)s2)cc1            TGI             1.28

// below: TGI requested for another molecule
Query: Query the reported TGI for COLO 205 colon; item: `C#C[C@]1(O)CC[C@H]2[C@@H]3CC=C4c5sc(Nc6ncccc6C)nc5CC[C@]4(C)[C@H]3CC[C@@]21C`
Response: 3.9

====

Below, each entry is listed alongside its reported GI50.
# Test system: HOP-62 NSCLC
# assay.protocol: NCI tumour cell line growth inhibition, 48 h

Some solved cases for reference:
In [3]: df
Out[3]:
                            compound_string  recorded_result
0  C#C[C@]1(O)CC[C@H]2[C@@H]3CC=C4c5sc(Nc6ncccc6C)nc5CC[C@]4(C)[C@H]3CC[C@@]21C          1.35 µM
1  COc1ccc(-c2cnc(NC(=O)CCCCCCNC(=O)C(O)(O)C(F)(F)F)s2)cc1          1.14 µM
2  CC(C)(O)c1cncc(-c2ccc3ncnc(N4CCc5cc(F)c(Cl)cc54)c3c2)c1          1.19 µM
3  CNC(=O)c1cc(-c2ccc(NC(=O)Nc3ccc(N4CCN(C)CC4)c(C(F)(F)F)c3)cc2)nc2cccnc12          16.4 µM

# context switch: different compound, same GI50
Query: Please look up its GI50: `COc1ccc(CNS(=O)(=O)/N=C2\NC(=O)NC2=C(Cl)Cl)cc1`
Response: 0.621 µM
